B1: glmS ribozyme (parent)
chain: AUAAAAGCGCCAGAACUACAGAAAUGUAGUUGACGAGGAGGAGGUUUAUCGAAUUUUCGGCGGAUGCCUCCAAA

variants of: B1; test: kcat; higher = faster cleavage; RNA array; conditions: with glucosamine-6-phosphate
Variants at the floor of the assay were thinned out.
Label rule, in plain words: kcat of 0.0002 s⁻¹ and up is 1, under 0.0002 s⁻¹ is -1.

**Q:** Does the reported kcat for U46G U69C fall at or above the 0.0002 s⁻¹ mark?
**A:** 1

**Q:** Could you tell me if the measured kcat of A33U G41U reaches 0.0002 s⁻¹ or more?
**A:** -1

**Q:** Is reported kcat greater than or equal to 0.0002 s⁻¹ here: A6C U65G
**A:** -1

**Q:** Confirm if kcat reported for the variant U55A C58A is 0.0002 s⁻¹ or above.
**A:** 1

**Q:** Form field: kcat at least 0.0002 s⁻¹? Entry: U30A G59A
**A:** -1

**Q:** Is reported kcat greater than or equal to 0.0002 s⁻¹ here: G37C U45A
**A:** -1

**Q:** For this variant, is measured kcat 0.0002 s⁻¹ or higher? A14C U69G
**A:** -1

**Q:** // inclusive: kcat at least 0.0002 s⁻¹? input: U31C G32A C58A U65G
**A:** -1

**Q:** Hello, I need to know if C34G C68A has measured kcat not below 0.0002 s⁻¹. Thanks!
**A:** -1

**Q:** Is reported kcat greater than or equal to 0.0002 s⁻¹ here: "U30G"
**A:** 1

**Q:** Record C16U G44A ; criterion: kcat no lower than 0.0002 s⁻¹. Met?
**A:** 1

**Q:** Is it the case that C11U A14U G38A C50U U65G has kcat reaching or exceeding 0.0002 s⁻¹?
**A:** -1

**Q:** Kindly determine if kcat recorded for A53G A64G is above or exactly 0.0002 s⁻¹.
**A:** 1

**Q:** Form field: kcat at least 0.0002 s⁻¹? Entry: G66U C71A
**A:** 1

**Q:** Check the entry A12C C16U : does kcat equal or exceed 0.0002 s⁻¹?
**A:** 1

**Q:** Hello, I need to know if G29C A52G has measured kcat not below 0.0002 s⁻¹. Thanks!
**A:** -1

**Q:** Check the entry G32A U56C : does kcat equal or exceed 0.0002 s⁻¹?
**A:** 1

**Q:** Textbook exercise: given the entry G41C A53U , state whether its kcat is greater than or equal to 0.0002 s⁻¹.
**A:** 1

**Q:** Is kcat for C16A G29C at or above 0.0002 s⁻¹?
**A:** 1

**Q:** I'd appreciate it if you could say whether U30C C67G has kcat at least equal to 0.0002 s⁻¹.
**A:** -1

**Q:** Is it the case that U47C C50A has kcat reaching or exceeding 0.0002 s⁻¹?
**A:** -1

**Q:** Check this variant for kcat at or above 0.0002 s⁻¹: G13C A14G
**A:** 1
